The reader will find reported Observed Cmax, peak area values listed item by item below.
experiment: Clinical pharmacokinetics of ivermectin metabolites in blood of healthy volunteers; type: in vivo, human; conditions: PK subject 8, 50 µL blood

| Molecule | Observed Cmax, peak area, counts |
| --- | --- |
| CCC(C)C1OC2(CCC1C)CC1CC(CC=C(C)C(OC3CC(OC)C(OC4CC(O)C(O)C(C)O4)C(C)O3)C(C)C=CC=C3COC4C(O)C(CO)=CC(C(=O)O1)C34O)O2 (stereo not shown) [M4, 3″-O-desmethyl, 4-hydroxy-H2B1a] | 5.21E+03 |
| CCC(C)C1OC2(CCC1C)CC1CC(CC=C(C)C(OC3CC(OC)C(OC4CC(O)C(O)C(C)O4)C(C)O3)C(C)C=CC=C3COC4C(O)C(C)=CC(C(=O)O1)C34O)O2 (stereo not shown) | 1.79E+04 |
| CC[C@H](C)[C@H]1O[C@]2(CC[C@@H]1CO)C[C@@H]1C[C@@H](C/C=C(\C)[C@@H](O[C@H]3C[C@H](OC)[C@@H](O)[C@H](C)O3)[C@@H](C)/C=C/C=C3\CO[C@@H]4[C@H](O)C(C)=C[C@@H](C(=O)O1)[C@]34O)O2 [M5, 24-hydroxy-H2B1a monosaccharide] | 6.84E+02 |
| CCC(C)C1OC2(CCC1C)CC1CC(CC=C(C)C(OC3CC(OC)C(OC4CC(OC)C(O)C(C)O4)C(C)O3)C(C)C=CC=C3COC4C(O)C(CO)=CC(C(=O)O1)C34O)O2 (stereo not shown) [M2, 4-hydroxy-H2B1a] | 1.25E+04 |
